Tested on: K-562 leukemia
assay explanation: NCI tumour cell line growth inhibition, 48 h; in the data active = GI50 below about 0.43 µM; inactive = the rest
Labels: YES (active), NO (inactive)

>  <compound>
COc1cc(C2CC(c3ccc4c(c3)OCO4)=NN2C=O)cc(OC)c1OC (stereo not drawn)

>  <assigned category>
NO

$$$$
>  <compound>
CCCC(C)c1cc(Cc2cc(Cl)cc(Cl)c2O)c(O)c(Cc2cc(Cl)cc(Cl)c2O)c1 (stereo not drawn)

>  <assigned category>
YES

$$$$
>  <compound>
COc1ccc2nc(-c3ccc(-c4noc(-c5cc(OC)c(OC)c(OC)c5)n4)cc3)[nH]c2c1

>  <assigned category>
NO

$$$$
>  <compound>
COc1ccc(-c2nc3sc4c(c3c(=O)[nH]2)CCCCCC4)cc1

>  <assigned category>
YES

$$$$
>  <compound>
COc1ccc(/C(=C2/O[C@@H]([C@H]3COC(C)(C)O3)[C@H]3OC(C)(C)O[C@@H]23)c2cc(OC)c(OC)c(OC)c2)cc1O

>  <assigned category>
NO

$$$$
>  <compound>
CC(CCC(=O)O)[C@H]1CCC2[C@@H]3CC[C@@H]4CC(O)CC[C@]4(C)C3CC[C@@]21C (stereo partly drawn)

>  <assigned category>
NO

$$$$
>  <compound>
Cc1ccccc1[P+](Cc1ccccc1)(c1ccccc1)c1ccccc1

>  <assigned category>
NO

$$$$
>  <compound>
C=CCC[CH2][Sn]([c]1ccccc1)([c]1ccccc1)[c]1ccccc1

>  <assigned category>
NO

$$$$
